test system: UACC-257 melanoma; assay: NCI-60 one-dose screen, 48 h (100 = growth as untreated, 0 = no growth, -100 = all killed); details: 10 µM unless noted
Compounds without any hit were thinned out: in the full panel of roughly 83,000, 20% have a hit.
reported-endpoint: growth (%)
Your answer should be a plain number; it is taken to be in %.

                                   molecule  reported_endpoint  output_unit  observed
0  COc1ccc(C(=O)c2nccc3cc(OC)c(OC)cc23)cc1OC             growth            %     -11.2
1  O=C1Nc2ccccc2/C1=C/C(=O)c1ccc(N2CCCC2)cc1             growth            %      78.1
2          CN(C)c1ccc(N=Nc2ccc3ccccc3c2)cc1             growth            %       102

Ask | Sample `Cc1cc(SC#N)ncn1` — what was its growth?
Reply | 103

Ask | Endpoint output: growth of `Cc1ccc(-c2cn(C/C=C3\C=CN(S(=O)(=O)c4ccccc4)CC3)nn2)cc1` . Value?
Reply | 106

* * *

test system: OVCAR-4 ovarian; assay: NCI-60 one-dose screen, 48 h (100 = growth as untreated, 0 = no growth, -100 = all killed); conditions: 10 µM
The panel holds about 83,000 compounds, 20% with a hit somewhere; the sample as a whole holds those more often.
Rule: condition met for growth not less than 80%, condition not met for anything less.

>>> print(df.to_string())
                                   molecule                cat
0  Cc1nn(-c2ccccc2)c(N2CCOCC2)c1-c1nc2ccc([N+](=O)[O-])cc2[nH]1      condition met
1               Nc1ccc(Cl)c([N+](=O)[O-])c1      condition met
2  CCN(CCNc1ccc(C)c2sc3cc(Cl)ccc3c(=O)c12)CC(C)O (stereo not given)  condition not met
3  COc1c(C(C)=O)c(OCCCCOc2c(C(C)=O)c(OC)c3ccoc3c2OC)c(OC)c2occc12  condition not met

# evaluate next
Ask | Has Nc1nc(N)c2c(n1)NC(c1ccc(F)cc1)C1CCc3ccccc3C1=N2 (stereo not given) a recorded growth greater than or equal to 80%?
Reply | condition not met

* * *

system: SR leukemia; experiment: NCI-60 one-dose screen, 48 h; details: 10 µM unless noted
About 83,000 compounds went through this panel and 20% of them were active in at least one assay; those are over-represented in the sample as a whole. Calls of active or inactive are those of the source. How the source made its calls: active means growth percent below 10; inactive means the rest.
Give one outcome, nothing more. List: Yes = active, No = inactive

compound	cat
CCCCC(CC)COC(=O)C[N+](C)(C)CCOC(c1ccccc1)c1ccccc1 (stereo not given)	Yes

Ask | Record request — test call for `CCN=Cc1c(O)c(O)c(C(C)C)c2cc(C)c(-c3c(C)cc4c(C(C)C)c(O)c(O)c(C=NCC)c4c3O)c(O)c12`
Reply | No

Ask | Record lookup: outcome of this test for `CCc1ccc(NC(=O)N[C@@H](Cc2cc(F)cc(F)c2)C(=O)N[C@@H]2C(=O)N3C[C@H](O)C[C@H]3C(=O)N3CCOC[C@H]3C(=O)N[C@@H](C)C(=O)N3C[C@H](C)C[C@H]3C(=O)O[C@H]2C)cc1` ?
Reply | No

Ask | I'd appreciate the recorded outcome for `Oc1ccc(N=Nc2nccs2)c(O)c1` from this test.
Reply | Yes

Ask | Could you please tell me the result logged for `Cn1cc(-c2nnc(-c3cn(C)c4ncccc34)o2)c2ccccc21` in this assay?
Reply | No

Ask | Outcome? `Nc1nc(Nc2ccccc2)c2ncn(Cc3ccc4c(c3)OCO4)c2n1`
Reply | No

Ask | Recorded test call requested for CC1Cc2ccc(OCCN(C)C)cc2C1=O (stereo not given)
Reply | No

Ask | Outcome logged for `O=[N+]([O-])c1cccc(N=NNc2cccc([N+](=O)[O-])c2)c1` in this assay:
Reply | No

Ask | Hi, sorry to bother you, what did the test record for `C=C(C)[C@@H]1CC[C@]2(COC(=O)c3ccccc3C(=O)O)CC[C@]3(C)[C@H](CC[C@@H]4[C@@]5(C)CC[C@H](OC(=O)c6ccccc6C(=O)O)C(C)(C)[C@@H]5CC[C@]43C)[C@@H]12` ?
Reply | No

* * *

tested on: SK-MEL-2 melanoma; experiment: NCI-60 one-dose screen, 48 h; conditions: 10 µM unless noted
This is part of a sample that, as a whole, favours compounds with a hit. Of some 83,000 tested, about 20% had one in any assay. Active and inactive are the calls of the source. How the source made its calls: active means growth percent below 10; inactive means the rest.
Hi there, use one of these labels in your reply, thanks! active, inactive

Observe how each entry below is paired with its result.
compound	cat
Cc1cc(NN=C(c2ccc(O)cc2)c2ccc(O)cc2)c([N+](=O)[O-])cc1[N+](=O)[O-]	active
Cc1ccc(C2=C/C(=C/c3ccc(Br)cc3)C(=O)N2CCc2ccc(S(N)(=O)=O)cc2)cc1	inactive
c1ccc(-c2nnc(-c3c[nH]c4ncccc34)s2)cc1	inactive
Cc1ccc(NC(=O)N[C@@H](Cc2cc(F)cc(F)c2)C(=O)N[C@@H]2C(=O)N3CCC[C@H]3C(=O)N3CCCC[C@H]3C(=O)N[C@@H](C)C(=O)N3C[C@H](C)C[C@H]3C(=O)O[C@H]2C)cc1	inactive
COc1cc2c(cc1OC(C)=O)C(=O)CCCC2	inactive

Continue with the next compound.
Ask | I would be grateful if you could indicate the recorded call for `O=C(CSc1nc2ccc([N+](=O)[O-])cc2[nH]1)Nc1cccc(Cl)c1` .
Reply | active

* * *

system: IGROV1 ovarian; assay: NCI-60 one-dose screen, 48 h (100 = growth as untreated, 0 = no growth, -100 = all killed); conditions: 10 µM unless noted
This is part of a sample that, as a whole, favours compounds with a hit. Of some 83,000 tested, about 20% had one in any assay.
Listing of recorded growth by entry.
Give the number; % is assumed, so skip it.

Worked cases, growth given:
In [3]: df
Out[3]:
                                   molecule  output_unit  observed
0  O=C(Nc1ccc(Oc2ccc(F)cc2)c(Cl)c1)c1cccnn1            %      97.6
1  Cn1cc(-c2noc(-c3cn(C)c4ncc(F)cc34)n2)c2cc(Br)ccc21            %      73.3
2  CCOc1cccc2c(NC(C)CCCN(CC)CC)c(C)cnc12 (stereo not given)            %       102
3                   CCCCCCSc1ncnc2nc[nH]c12            %      82.6

Ask | May I ask what growth has been recorded for CC/C=C(\C)C(CCC)(CN=O)C(=O)OCC (stereo not given) ?
Reply | 118

* * *

tested on: MDA-MB-231 breast; assay: NCI-60 one-dose screen, 48 h; details: 10 µM unless noted
Compounds without any hit were thinned out: in the full panel of roughly 83,000, 20% have a hit. Active and inactive are the calls of the source. Rule for the calls: active = growth percent below 10; inactive = the rest.
Return exactly one item of active, inactive

Previously resolved entries follow.
molecule	cat
CCOC(=O)c1cnc2ccc(Br)cc2c1Nc1cccc(S(N)(=O)=O)c1	inactive
Cn1ncc2c(Nc3ccc(O)cc3)nc(Cl)nc21	inactive

Ask | What did the test return for `Cc1ccc(NC(=O)N[C@@H](Cc2cc(F)cc(F)c2)C(=O)N[C@@H]2C(=O)N3CCC[C@H]3C(=O)N3CCCC[C@H]3C(=O)N[C@@H](C)C(=O)N3C[C@H](C)C[C@H]3C(=O)O[C@H]2C)cc1` ?
Reply | active

Ask | Test call, this molecule: `CCOC(=O)c1nc2c3ccccc3ccn2c1C(=O)OC`
Reply | inactive

Ask | For `CCn1cc(-c2cc(-c3ccc(Cl)cc3)nc(N)n2)c(-c2ccc(Br)cc2)n1` , what call appears in the results of this test?
Reply | inactive

Ask | // param item: `COc1ccc(/C=C(/C(=O)c2ccc(Cl)cc2)C(=O)C(F)(F)F)cc1` ; yields the recorded call
Reply | inactive

Ask | Answer briefly: the call reported for `CC1=CCc2ccccc21` in this assay.
Reply | inactive

Ask | What did the test return for `c1ccc(-c2n[nH]c(-c3ccccn3)n2)nc1` ?
Reply | inactive

Ask | Name the outcome recorded for `N/C(=N\c1nc2ccccc2[nH]1)NC(=O)Cc1cccc2ccccc12` in the assay.
Reply | inactive

Ask | Give the logged outcome of this assay for the following molecule: `CN(C)Cc1ccc[nH]1`
Reply | inactive

Ask | Dear all, I need the recorded test outcome for `O=C(N/N=C/c1ccc([N+](=O)[O-])cc1)c1ccc(Br)o1` , thank you.
Reply | inactive

Ask | Hi team, can someone confirm the assay call for `COc1cc(NCc2ccccc2O)c2ncccc2c1` ?
Reply | inactive

Ask | Status in this test for `COC(=O)c1cc(O)c2c(c1C(=O)OC)C[C@H]1[C@@H]3CC=C4C[C@@H](O)CC[C@]4(C)[C@H]3CC[C@]21C` ?
Reply | active

Ask | Assay outcome for C=CC1=C(C)C2=NC1=CC1=NC(=CC3=C(C)C4=C(O)C(C(=O)O)C(=C5NC(=C2)C(C)C5CCC(=O)O)C4=N3)C(CC)=C1C (centres undefined) : what was it?
Reply | inactive

Source of measurements: PubChem BioAssay (NCI)
